Value source: patent US20120093811A1

- target.or.test.system: T1, VEGF-D (recombinant human; source not given) (human, UniProt O43915 89-205, limits assumed)
- T1 construct: also used here as target of IC50 values averaged over Source 1 and Source 2; also called vascular endothelial growth factor-D
- T1 sequence: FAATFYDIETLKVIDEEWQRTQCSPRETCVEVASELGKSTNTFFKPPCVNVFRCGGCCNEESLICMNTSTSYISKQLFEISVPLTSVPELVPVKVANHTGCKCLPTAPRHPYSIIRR
- experimental.details: SPR (BIAcore) off-rate ranking of scFv clones
readout.type: koff (s⁻¹)
Lab book: enter the figure in s⁻¹, no units written.

The reported koff of the binder scFv clone DI26 (scFv, also called DI126) scFv: QVQLVQSGAKVKQPGASVKASCKASGYTFTGYNMYWVRQAPGQGLEWMGYIDPYSGDTTYNQKFKGRVTMTTDTSTSTAYMELRSLRSDDTAVYYCARTSYYGGMDYWGRGTLVTVASGGGASGGGGSGGGGSDIVMTQTPLSSPVTLGQPASISCRSSQSLVHSNGNTYLHWLQQRPGQPPRLLIYKVSNRFSGVPDRFSGSGAGTDFTLKISRVEAEDVGVYYCSQSTHVPRTFGQGTKLEIKR was 0.00361

The reported koff of the binder scFv clone CK61 (scFv) scFv: QVQLVQSGAKVKQPGASVKVSCKASGYTFTGYNMYWVRQAPGQGLEWMGYIDPYNGDTTYNQKFKGRVTMTTDTSTSTAYMKLRSLRSDDTAVYYCARTSYYGGMDYWGRGTLVTVASGGGASGGGGSGGGGSDIVMTQTPLSSPVTLGQPASISCRSSQSLVHSNGNTYLHWLQQRPGQPPRLLIYKVSNRFSGVPDRFSGSGAGTDFTLKISRVEAEDVGVYYCSQSTHVPRTFGQGTKLEIKR was 0.00522

The reported koff of the binder scFv clone AR74 (scFv) scFv: QVQLVQSGAEVKQPGASVKVSCKASGYTFTGYNMYWVRQAPGQGLEWMGYIDPYNGDTTYNQKFKGRVTMTTGTSTSTAYMKLRSLRSDDTAVYYCARASYYGGMDYWGRGTLVTVASGGGASGGGGSGGGGSDIVMTQTPLSSPVTLGQPASISCRSSQSLVHSNGNTYLHWLQQRPGQPPRLLIYKVSNRFSGVPDRFSGSGAGTDFTLKISRVEAEDVGVYYCSQSTHVPRTFGQGTKLEIKR was 0.00167

The reported koff of the binder scFv clone Z49 (scFv) scFv: QVQLVQSGAEVKQPGASVKVSCKASGYTFTGYNMYWVRQAPGQGLEWMGYIDPYNGDTTYNQKFKGRVTMTTDTSTSTAYMELRSLRSGDTAVYYCARTSYYGGMDYWGRGTLVTVASGGGASGGGGSGGGGSDIVMTQTPLSSPVTLGQPASISCRSSQSLVHSNGNTYLHWLQQRPGQPPRLLIYKVSNRFSGVPDRFSGSGAGTDFTLKISRVEAEDVGVYYCSQSTHVPRTFGQGTKLEIKR was 0.00497

The reported koff of the binder scFv clone CJ37 (scFv) scFv: QVQLVQSGAEVKQPGASVKVSCKASGYTFTGYNMYWVRQAPGQGLEWMGYIDPYNGDTTYNQKFKGRVTMTTDTSTSTAYMKLRSLRSDDTAVYYCARTSYYGGMDYWGRGTLVTVASGGGASGGGGSGGGGSDIVMTQTPLSSPVTLGQPASISCRSSQSLVHSNGNTYLHWLQQRPGQPPRLLIYKVSNRFSGVPDRFSGSGAGTDFTLKISRVEAEDVGVYYCSQSTHVPRTFGRGTKLEIKR was 0.00732
